test system: MX-1 breast xenograft, nude mice, tumor weight T/C; experiment: NCI In Vivo Anticancer Drug Screen. Data for tumor model Human Mammary Carcinoma MX-1 Xenograft (intrarenal inoculation) in NU/NU Swiss (nude) mice; conditions: endpoint: mean tumor weight change; dose: 12.5 mg/kg/injection; schedule: Q04DX003 (sc); vehicle: saline with Tween-80; higher = larger tumour
Inconclusive results are not listed.
What T/C was measured for each of the following?

Inquiry: Look up T/C for this molecule: C[CH2][Sn]([CH2]C)([O]S(C)(=O)=O)[O]S(C)(=O)=O
Reply text: 95 % of control

Inquiry: Look up T/C for this molecule: C[n+]1cccc(NC(=O)c2ccc(NC(=O)C34CCC(C(=O)Nc5ccc(C(=O)Nc6ccc[n+](C)c6)cc5)(CC3)CC4)cc2)c1
Reply text: 118 % of control

Inquiry: Look up T/C for this molecule: C[CH2][Sn]([CH2]C)([CH2]C(=O)OC)[CH2]C(=O)OC
Reply text: 79 % of control

Inquiry: Look up T/C for this molecule: CC1c2ccccc2CC(CCN(C)C)c2ccccc21 (stereo not given)
Reply text: 63 % of control

Inquiry: Look up T/C for this molecule: CCOC(=O)Nc1cc2c(c(N)n1)N=C(c1ccccc1)CN2
Reply text: 83 % of control

====

What T/C was measured for each of the following?
system: MX-1 breast xenograft, nude mice, tumor weight T/C; experiment: NCI In Vivo Anticancer Drug Screen. Data for tumor model Human Mammary Carcinoma MX-1 Xenograft (intrarenal inoculation) in NU/NU Swiss (nude) mice; conditions: endpoint: mean tumor weight change; dose: 300.0 mg/kg/injection; schedule: Q04DX003 (ip); vehicle: saline; higher = larger tumour
Records with an inconclusive call do not appear.

Inquiry: Look up T/C for this molecule: CC1=NN(c2cccc(S(=O)(=O)O)c2)C(=O)C1N=Nc1cc(Cl)cc(S(=O)(=O)O)c1O.CC1=NN(c2cccc(S(=O)(=O)O)c2)C(=O)C1N=Nc1cc(Cl)cc(S(=O)(=O)O)c1O.[Cr] (stereo unspecified)
Reply text: 94 % of control

Inquiry: Look up T/C for this molecule: c1cn[nH]c1
Reply text: 69 % of control

Inquiry: Look up T/C for this molecule: Nc1ncc(C2OC(CO)C(O)C2O)c(=O)[nH]1 (stereo unspecified)
Reply text: 35 % of control

Inquiry: Look up T/C for this molecule: CC(C)NC(=O)OCc1c(COC(=O)NC(C)C)c(-c2ccc(Cl)c(Cl)c2)n2c1CCC2
Reply text: 28 % of control

Inquiry: Look up T/C for this molecule: NCc1cc(O)c(O)c(O)c1
Reply text: 91 % of control

Inquiry: Look up T/C for this molecule: O=CC(CO)CC(C=O)n1cnc2c(=O)[nH]cnc21 (stereo unspecified)
Reply text: 57 % of control

====

What T/C was measured for each of the following?
Tested on: MX-1 breast xenograft, nude mice, tumor weight T/C
Test: NCI In Vivo Anticancer Drug Screen. Data for tumor model Human Mammary Carcinoma MX-1 Xenograft (intrarenal inoculation) in NU/NU Swiss (nude) mice
Details: endpoint: mean tumor weight change; dose: 4.0 mg/kg/injection; schedule: Q01DX010 (sc); vehicle: water; higher = larger tumour
Experimental: The antitumor activity of compounds was measured in mice bearing transplantable tumors. Survival or tumor size were measured and the results are expressed as the measurement made in the treated group (T) divided by the measurement made in the vehicle treated control group (C). The tumor model used in this assay is Human Mammary Carcinoma MX-1 Xenograft (intrarenal inoculation) in NU/NU Swiss (nude) mice
Results filed as inconclusive are left out.

Inquiry: Lookup: T/C / MX-1 breast xenograft, nude mice, tumor weight T/C / COc1cccc2c1C(=O)c1c(O)c3c(c(O)c1C2=O)C[C@@](O)(C(C)=O)C[C@@H]3OC1CC(N(C)C)C(O)C(C)O1 (some centres undefined)
Reply text: 120 % of control

Inquiry: Lookup: T/C / MX-1 breast xenograft, nude mice, tumor weight T/C / COc1cccc2c1C(=O)c1c(O)c3c(c(O)c1C2=O)C[C@@](O)(/C(C)=N/NC(=O)c1cccc([N+](=O)[O-])c1)C[C@@H]3OC1CC(N)C(O)C(C)O1 (some centres undefined)
Reply text: 89 % of control

Inquiry: Lookup: T/C / MX-1 breast xenograft, nude mice, tumor weight T/C / COc1cccc2c1C(=N)c1c(O)c3c(c(O)c1C2=O)C[C@@](O)(C(C)=O)C[C@@H]3OC1CC(N)C(O)C(C)O1 (some centres undefined)
Reply text: 62 % of control

Inquiry: Lookup: T/C / MX-1 breast xenograft, nude mice, tumor weight T/C / CC[C@@]1(O)C[C@H](OC2CC(N(C)C)C(OC3CC(O)C(OC4CCC(=O)C(C)O4)C(C)O3)C(C)O2)c2c(cc3c(c2O)C(=O)c2c(O)cccc2C3=O)[C@H]1C(=O)OC (some centres undefined)
Reply text: 65 % of control
